Molecular target: CYP2B6 (Homo sapiens)
Assay: Ketamine demethylation measured by norketamine formation
Assay type: in vitro ADME
Conditions: human, pH 7.4, Km, N-demethylation, product S-norketamine
result_type: Km at 10 min (µM)
Numbers only; they are read as µM.

Exercise: Quick check: Km at 10 min of CNC1(c2ccccc2Cl)CCCCC1=O (centres unmarked) ?
Key: 5

Exercise: Then what about the compound "CN[C@]1(c2ccccc2Cl)CCCCC1=O" ?
Key: 10

----------
Biological target: CYP2B6 (Homo sapiens, UniProt P20813)
Sequence (P20813 1-491): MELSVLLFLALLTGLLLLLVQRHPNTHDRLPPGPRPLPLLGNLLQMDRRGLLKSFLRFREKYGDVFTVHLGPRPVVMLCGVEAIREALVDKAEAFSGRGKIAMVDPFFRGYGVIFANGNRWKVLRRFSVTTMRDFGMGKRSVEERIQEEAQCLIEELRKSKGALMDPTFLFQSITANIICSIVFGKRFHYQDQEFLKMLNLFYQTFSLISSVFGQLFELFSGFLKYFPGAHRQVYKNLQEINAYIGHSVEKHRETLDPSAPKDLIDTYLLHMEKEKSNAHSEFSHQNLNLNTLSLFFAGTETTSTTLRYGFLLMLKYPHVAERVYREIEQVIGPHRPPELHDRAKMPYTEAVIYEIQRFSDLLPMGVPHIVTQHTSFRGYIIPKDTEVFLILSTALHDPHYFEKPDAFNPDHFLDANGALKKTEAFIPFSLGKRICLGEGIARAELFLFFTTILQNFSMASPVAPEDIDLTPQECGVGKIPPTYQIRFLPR
Test: Ketamine demethylation measured by norketamine formation
Type: in vitro ADME
Conditions: N-demethylation, product R-norketamine
result_type: Km (µM)
Enter your answer as a number in µM; do not include the unit.

Exercise: # get_value(readout= Km, system= CYP2B6 (Homo sapiens, UniProt P20813)) for "CN[C@@]1(c2ccccc2Cl)CCCCC1=O"
Key: 11
